- ASSAY EXPLANATION: Brain accumulation and plasma pharmacokinetics of vandetanib in FVB mice
- Assay type: in vivo, male FVB wild type mice
- REPORTED CONDITIONS: male, FVB, mouse, plasma, iv, 5 mg/kg

SMILES NOTATION	DISPLAY UNIT	AUC(0-t)
COc1cc2c(Nc3ccc(Br)cc3F)ncnc2cc1OCC1CCN(C)CC1	ng·h/mL	5090

###

- ASSAY EXPLANATION: Bi-directional transport across MDCKII-WT cell monolayers
- Type: in vitro ADME, canine
- REPORTED CONDITIONS: dog, MDCK

MOLECULE	Papp A→B at 240 min, 5 μM, ×10⁻⁶ cm/s
COc1cc2c(Nc3ccc(Br)cc3F)ncnc2cc1OCC1CCN(C)CC1 [Vandetanib]	7.57
